Just for reference, patent US12473303B2 is where these values come from.

Known CDK7/CDK12 of a selection of compounds
Target: Human CDK12 wt/CycK (Homo sapiens (Human))
Test: Radiometric protein kinase assay (33PanQinase Activity Assay), CDK12
Format: biochemical
Settings: Table 1; ratio greater than 1 indicated selectivity for CDK12
Please give the numeric answer without any surrounding text.

Study these solved cases before continuing.
>>> measured("CC(C)c1cnn2c(NCc3ccc4c(c3)ncn4C)cc(NC[C@H]3CCNC[C@@H]3O)nc12 [H-APPAMP-006]")
4.72
>>> measured("Cc1c(CNc2cc(NC[C@H]3CCNC[C@@H]3O)nc3c(C(C)C)cnn23)nc2ccccn12 [H-APPAMP-017]")
0.6
>>> measured("Cc1ccn2cc(CNc3cc(NC[C@H]4CCNC[C@@H]4O)nc4c(C(C)C)cnn34)nc2c1 [H-APPAMP-009]")
3.2

Read the next record carefully.
Exam item: I would be grateful if you could share the reported CDK7/CDK12 for CCc1cnn2c(NCc3cn4cc(C5CC5)cc(C(F)(F)F)c4n3)cc(NC[C@H]3CCNC[C@@H]3O)nc12 [H-APPAMP-038] .
Marked response: 7.6

* * *

Target: Human CDK12 wt/CycK (Homo sapiens (Human), UniProt Q9NYV4)
Sequence (Q9NYV4 whole entry): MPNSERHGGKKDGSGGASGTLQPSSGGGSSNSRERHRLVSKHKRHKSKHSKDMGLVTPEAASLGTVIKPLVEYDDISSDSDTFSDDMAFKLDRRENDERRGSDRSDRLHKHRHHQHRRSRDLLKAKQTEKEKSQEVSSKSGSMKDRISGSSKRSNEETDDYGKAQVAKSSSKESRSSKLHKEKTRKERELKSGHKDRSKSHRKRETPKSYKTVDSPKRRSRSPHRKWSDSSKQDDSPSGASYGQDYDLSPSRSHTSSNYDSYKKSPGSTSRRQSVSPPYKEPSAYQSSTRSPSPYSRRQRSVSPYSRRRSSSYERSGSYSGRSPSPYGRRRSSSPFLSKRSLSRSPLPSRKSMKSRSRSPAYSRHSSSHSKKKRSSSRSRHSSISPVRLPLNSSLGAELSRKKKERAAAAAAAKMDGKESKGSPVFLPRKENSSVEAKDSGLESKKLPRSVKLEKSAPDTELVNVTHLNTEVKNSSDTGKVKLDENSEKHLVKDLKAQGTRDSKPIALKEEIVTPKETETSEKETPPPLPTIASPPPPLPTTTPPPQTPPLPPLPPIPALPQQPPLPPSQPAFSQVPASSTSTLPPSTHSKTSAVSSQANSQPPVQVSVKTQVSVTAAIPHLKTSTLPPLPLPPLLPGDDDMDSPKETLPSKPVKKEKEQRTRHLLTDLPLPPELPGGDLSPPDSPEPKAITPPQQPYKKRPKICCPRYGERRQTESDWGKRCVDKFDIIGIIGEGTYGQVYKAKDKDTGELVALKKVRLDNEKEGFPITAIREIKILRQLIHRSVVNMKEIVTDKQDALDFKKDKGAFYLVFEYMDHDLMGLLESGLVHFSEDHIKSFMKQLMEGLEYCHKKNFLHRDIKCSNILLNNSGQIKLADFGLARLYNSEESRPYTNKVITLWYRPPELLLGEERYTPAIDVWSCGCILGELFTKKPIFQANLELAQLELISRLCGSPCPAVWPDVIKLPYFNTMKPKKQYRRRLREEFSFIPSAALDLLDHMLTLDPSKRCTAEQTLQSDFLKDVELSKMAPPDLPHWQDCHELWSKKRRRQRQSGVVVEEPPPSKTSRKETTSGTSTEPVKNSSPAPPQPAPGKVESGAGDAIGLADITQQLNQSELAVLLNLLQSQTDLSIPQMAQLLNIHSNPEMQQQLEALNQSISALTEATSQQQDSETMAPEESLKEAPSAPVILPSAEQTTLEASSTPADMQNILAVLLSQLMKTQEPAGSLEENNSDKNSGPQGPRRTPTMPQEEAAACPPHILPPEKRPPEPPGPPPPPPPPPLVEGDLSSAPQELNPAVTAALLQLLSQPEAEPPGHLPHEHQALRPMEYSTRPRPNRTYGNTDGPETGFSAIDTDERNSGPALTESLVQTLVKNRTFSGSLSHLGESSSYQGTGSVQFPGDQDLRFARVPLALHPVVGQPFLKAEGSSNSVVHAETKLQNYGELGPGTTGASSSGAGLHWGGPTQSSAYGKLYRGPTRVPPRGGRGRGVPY
Sequence (O75909 whole entry partner): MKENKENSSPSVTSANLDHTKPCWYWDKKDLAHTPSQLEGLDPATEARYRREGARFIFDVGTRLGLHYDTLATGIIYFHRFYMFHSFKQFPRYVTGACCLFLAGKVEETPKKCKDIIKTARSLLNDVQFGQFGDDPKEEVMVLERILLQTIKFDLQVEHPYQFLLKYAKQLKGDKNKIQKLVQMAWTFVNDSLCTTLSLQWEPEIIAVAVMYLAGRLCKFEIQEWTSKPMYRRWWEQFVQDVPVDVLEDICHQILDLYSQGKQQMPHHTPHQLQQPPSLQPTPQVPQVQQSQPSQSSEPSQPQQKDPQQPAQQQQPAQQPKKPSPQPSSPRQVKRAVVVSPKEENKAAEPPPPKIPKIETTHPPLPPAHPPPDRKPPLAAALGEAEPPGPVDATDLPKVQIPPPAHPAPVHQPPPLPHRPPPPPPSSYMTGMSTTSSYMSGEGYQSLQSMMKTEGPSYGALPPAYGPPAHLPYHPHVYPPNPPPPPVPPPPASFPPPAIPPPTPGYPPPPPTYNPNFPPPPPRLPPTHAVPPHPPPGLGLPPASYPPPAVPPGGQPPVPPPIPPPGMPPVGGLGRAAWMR
Test: Radiometric protein kinase assay (33PanQinase Activity Assay), CDK12
Assay type: biochemical
Conditions: Table 1; ATP 0.3 μM; read-out: CDK12 IC50
MEASURED_QUANTITY: pIC50
// field semantics: pIC50 = negative decimal log of concentration (mol/L)

>>> measured("CC(C)c1cnn2c(NCc3ccc4ccccc4n3)cc(NC[C@H]3CCNC[C@@H]3O)nc12")
7.12

Exam item: I would be grateful if you could share the reported pIC50 for Cc1cccc2ncc(CNc3cc(NC[C@H]4CCNC[C@@H]4O)nc4c(C(C)C)cnn34)n12 .
Marked response: 7.42

Exam item: I would be grateful if you could share the reported pIC50 for Cc1cccn2cc(CNc3cc(NC[C@H]4CCNC[C@@H]4O)nc4c(C5CCC5)cnn34)nc12 .
Marked response: 7.19

Exam item: I would be grateful if you could share the reported pIC50 for COc1cccc2nc(CNc3cc(NC[C@H]4CCNC[C@@H]4O)nc4c(C5CC5)cnn34)cn12 .
Marked response: 7.55

* * *

Target: Human CDK12 wt/CycK (Homo sapiens (Human))
Test: Radiometric protein kinase assay (33PanQinase Activity Assay), CDK12
Format: biochemical
Settings: Table 3; CDK12 kinase activity; read-out: Biochemical Potency IC50
MEASURED_QUANTITY: pIC50
// field semantics: pIC50 = negative decimal log of concentration (mol/L)

>>> measured("Cn1c(CNc2cc(NC[C@H]3CCNC[C@@H]3O)nc3c(C4CC4)cnn23)nc2cc(F)c(F)cc21 [H-APPAMP-036]")
6.54
>>> measured("CC(C)c1cnn2c(NCc3cn4cccnc4n3)cc(NC[C@H]3CCNC[C@@H]3O)nc12 [H-APPAMP-002]")
7.15
>>> measured("CC(C)c1cnn2c(NCc3cn4ccccc4n3)cc(NC[C@H]3CCNC[C@@H]3O)nc12 [H-APPAMP-003]")
7.30
>>> measured("CC(C)c1cnn2c(NCc3nc4ccccn4c3C(F)(F)F)cc(NC[C@H]3CCNC[C@@H]3O)nc12 [H-APPAMP-023]")
6.15
>>> measured("CCc1cnn2c(NCc3cn4c(C)cccc4n3)cc(NC[C@H]3CCNC[C@@H]3O)nc12 [H-APPAMP-031]")
7.62

Exam item: I would be grateful if you could share the reported pIC50 for Cc1cccn2cc(CNc3cc(NC[C@H]4CCNC[C@@H]4O)nc4c(C5CCC5)cnn34)nc12 [H-APPAMP-029] .
Marked response: 7.19

Exam item: I would be grateful if you could share the reported pIC50 for CC(C)c1cnn2c(NCc3cnc4ccccn34)cc(NC[C@H]3CCNC[C@@H]3O)nc12 [H-APPAMP-016] .
Marked response: 7.02

Exam item: I would be grateful if you could share the reported pIC50 for CC(C)c1cnn2c(NCc3nc4ccccc4[nH]3)cc(NC[C@H]3CCNC[C@@H]3O)nc12 [H-APPAMP-005] .
Marked response: 7.19

Exam item: I would be grateful if you could share the reported pIC50 for CC(C)c1cnn2c(NCc3ccc4c(c3)ncn4C)cc(NC[C@H]3CCNC[C@@H]3O)nc12 [H-APPAMP-006] .
Marked response: 7.57

Exam item: I would be grateful if you could share the reported pIC50 for Cc1ccn2cc(CNc3cc(NC[C@H]4CCNC[C@@H]4O)nc4c(C(C)C)cnn34)nc2c1 [H-APPAMP-009] .
Marked response: 7.42

* * *

Known IC50 of a selection of molecules
Target: Human CDK12 wt/CycK (Homo sapiens (Human))
Test: Radiometric protein kinase assay (33PanQinase Activity Assay), CDK12
Type: biochemical
Conditions: Table 1; ATP 0.3 μM; read-out: CDK12 IC50
Description: A radiometric protein kinase assay (^33PanQinase® Activity Assay) was used for measuring the kinase activity of the two protein kinases (CDK12/CDK7). All kinase assays were performed in 96-well FlashPlates™ from PerkinElmer (Boston, MA, USA) in a 50 μL reaction volume. […] The reaction mixture was incubated at 30° C. for 60 min and then stopped by the addition of 2% (v/v) H3PO4. […] Incorporation of ^33Pi was determined with a microplate scintillation count (Microbeta, Wallac). […]

Study these solved cases before continuing.
>>> measured("Cc1cccn2cc(CNc3cc(NC[C@H]4CCNC[C@@H]4O)nc4c(C(C)C)cnn34)nc12 [H-APPAMP-004]")
"51.7 nM"
>>> measured("CC(C)c1cnn2c(NCc3nc4ccccc4[nH]3)cc(NC[C@H]3CCNC[C@@H]3O)nc12 [H-APPAMP-005]")
"65 nM"
>>> measured("Cc1csc2nc(CNc3cc(NC[C@H]4CCNC[C@@H]4O)nc4c(C(C)C)cnn34)cn12 [H-APPAMP-007]")
"20 nM"

Exam item: I would be grateful if you could share the reported IC50 for Cc1cc(C(F)(F)F)cc2nc(CNc3cc(NC[C@H]4CCNC[C@@H]4O)nc4c(C5CC5)cnn34)cn12 [H-APPAMP-039] .
Marked response: 48 nM

* * *

Biological target: Human CDK12 wt/CycK (Homo sapiens (Human))
Assay: Radiometric protein kinase assay (33PanQinase Activity Assay), CDK12
Assay type: biochemical
Conditions: Table 3; CDK12 kinase activity; read-out: Biochemical Potency IC50
Known IC50 of a selection of molecules
Your reply should be a number followed by the unit it is expressed in.

Study these solved cases before continuing.
>>> measured("CC(C)c1cnn2c(NCc3nc4ccccn4c3C3CC3)cc(NC[C@H]3CCNC[C@@H]3O)nc12 [H-APPAMP-024]")
"93 nM"
>>> measured("Cc1cccn2cc(CNc3cc(NC[C@H]4CCNC[C@@H]4O)nc4c(C(C)C)cnn34)nc12 [H-APPAMP-004]")
"51 nM"
>>> measured("CC(C)c1cnn2c(NCc3cc4ccccc4o3)cc(NC[C@H]3CCNC[C@@H]3O)nc12 [H-APPAMP-020]")
"540 nM"
>>> measured("O[C@H]1CNCC[C@@H]1CNc1cc(NCc2cn3ccc(C(F)(F)F)cc3n2)n2ncc(C3CC3)c2n1 [H-APPAMP-035]")
"44 nM"
>>> measured("Cc1cc(C)n2cc(CNc3cc(NC[C@H]4CCNC[C@@H]4O)nc4c(C(C)C)cnn34)nc2n1 [H-APPAMP-043]")
"21 nM"
>>> measured("O[C@H]1CNCC[C@@H]1CNc1cc(NCc2cn3cc(C(F)(F)F)cc(Cl)c3n2)n2ncc(C3CC3)c2n1 [H-APPAMP-033]")
"62 nM"
>>> measured("Cc1csc2nc(CNc3cc(NC[C@H]4CCNC[C@@H]4O)nc4c(C(C)C)cnn34)cn12 [H-APPAMP-007]")
"20 nM"
>>> measured("Cc1c(CNc2cc(NC[C@H]3CCNC[C@@H]3O)nc3c(C(C)C)cnn23)nc2ccccn12 [H-APPAMP-017]")
"143 nM"

Exam item: I would be grateful if you could share the reported IC50 for O[C@H]1CNCC[C@@H]1CNc1cc(NCc2cn3nc(C4CC4)ccc3n2)n2ncc(C3CC3)c2n1 [H-APPAMP-028] .
Marked response: 37 nM

* * *

Target: Human CDK12 wt/CycK (Homo sapiens (Human))
Experiment: Radiometric protein kinase assay (33PanQinase Activity Assay), CDK12
Type: biochemical
Conditions: Table 1; ATP 0.3 μM; read-out: CDK12 IC50
Lab note: compare IC50 with 100 nM, writing class 1 if less and class 0 if equal or more.

Field: example entries. Status: answers known.
>>> qualitative_label("O[C@H]1CNCC[C@@H]1CNc1cc(NCc2cn3c(C4CC4)cccc3n2)n2ncc(C3CC3)c2n1")
"class 1"
>>> qualitative_label("[2H]C([2H])(Nc1cc(NC[C@H]2CCNC[C@@H]2O)nc2c(C(C)C)cnn12)c1cn2ccccc2n1")
"class 1"
>>> qualitative_label("CC(C)c1cnn2c(NCc3cn4cccnc4n3)cc(NC[C@H]3CCNC[C@@H]3O)nc12")
"class 1"
>>> qualitative_label("Cc1cccn2cc(CNc3cc(NC[C@H]4CCNC[C@@H]4O)nc4c(C5CC5)cnn34)nc12")
"class 0"
>>> qualitative_label("CC(C)c1cnn2c(NCc3cc4ccccc4o3)cc(NC[C@H]3CCNC[C@@H]3O)nc12")
"class 0"

Exam item: Is 100 nM strictly greater than the compound's reported IC50? compound: CCc1cnn2c(NCc3cn4c(C(F)(F)F)cccc4n3)cc(NC[C@H]3CCNC[C@@H]3O)nc12
Marked response: class 0

Exam item: Is 100 nM strictly greater than the compound's reported IC50? compound: O[C@H]1CNCC[C@@H]1CNc1cc(NCc2cn3cc(C(F)(F)F)cc(Cl)c3n2)n2ncc(C3CC3)c2n1
Marked response: class 1

Exam item: Is 100 nM strictly greater than the compound's reported IC50? compound: CC(C)c1cnn2c(NCc3cn4ccccc4n3)cc(NC[C@H]3CCNC[C@@H]3O)nc12
Marked response: class 1

Exam item: Is 100 nM strictly greater than the compound's reported IC50? compound: CCc1cnn2c(NCc3cn4c(C)cccc4n3)cc(NC[C@H]3CCNC[C@@H]3O)nc12
Marked response: class 1

Exam item: Is 100 nM strictly greater than the compound's reported IC50? compound: CC(C)c1cnn2c(NCc3ccccc3)cc(NC[C@H]3CCNC[C@@H]3O)nc12 [REF-001, reference compound]
Marked response: class 0

Exam item: Is 100 nM strictly greater than the compound's reported IC50? compound: CC(C)c1cnn2c(NCc3cnc4ccccn34)cc(NC[C@H]3CCNC[C@@H]3O)nc12
Marked response: class 1
